Numbers sourced from patent US9266872B2.

Listing of recorded inhibition at 30 µM by entry.
Target: TMPRSS4 serine protease (Homo sapiens)
Construct: TMPRSS4 serine protease domain (205th Val˜437th Leu) was cloned in pET21b/NdeI-XhoI; inferred from pET21b XhoI cloning and Ni-NTA purification) (C); made in house; host or cells: E. coli BL21 (DE3)
Experiment: Inhibitory effect on TMPRSS4 serine protease activity using peptide substrate
Assay type: biochemical
Conditions: 30 uM compound; kallikrein peptide substrate 100 μM; DMSO negative control; read-out: Intracellular protease activity Inhibition % 30 uM
// return numeric value only (unit: %, not printed)

// below: answered compounds
{"query.smiles": "O=C(Nc1cc(Cl)cc(Cl)c1)c1cc(Cl)ccc1O", "system": "TMPRSS4 serine protease (Homo sapiens)", "inhibition at 30 µM [%]": 58}
{"query.smiles": "O=C(Nc1nc(C(F)(F)F)cs1)c1cc(Cl)ccc1O", "system": "TMPRSS4 serine protease (Homo sapiens)", "inhibition at 30 µM [%]": 61}
{"query.smiles": "N#Cc1cccc(NC(=O)c2cc(Cl)ccc2O)c1", "system": "TMPRSS4 serine protease (Homo sapiens)", "inhibition at 30 µM [%]": 47}
{"query.smiles": "O=C(Nc1nc(-c2ccccc2)cs1)c1cc(Cl)ccc1O", "system": "TMPRSS4 serine protease (Homo sapiens)", "inhibition at 30 µM [%]": 91}
{"query.smiles": "O=C(Nc1cc(C(F)(F)F)cc(C(F)(F)F)c1Cl)c1cc(Cl)ccc1O", "system": "TMPRSS4 serine protease (Homo sapiens)", "inhibition at 30 µM [%]": 100}

Next item in the queue.
GET /value?item= O=C(Nc1cnc2ccccc2c1)c1cc(Cl)ccc1O &field=inhibition at 30 µM returns 8

====

Listing of recorded inhibition at 10 µM by entry.
Biological target: TMPRSS4 serine protease (Homo sapiens, UniProt Q9NRS4)
Construct: TMPRSS4 serine protease domain (205th Val˜437th Leu) was cloned in pET21b/NdeI-XhoI; inferred from pET21b XhoI cloning and Ni-NTA purification) (C); made in house; host or cells: E. coli BL21 (DE3)
Sequence (Q9NRS4 205-437): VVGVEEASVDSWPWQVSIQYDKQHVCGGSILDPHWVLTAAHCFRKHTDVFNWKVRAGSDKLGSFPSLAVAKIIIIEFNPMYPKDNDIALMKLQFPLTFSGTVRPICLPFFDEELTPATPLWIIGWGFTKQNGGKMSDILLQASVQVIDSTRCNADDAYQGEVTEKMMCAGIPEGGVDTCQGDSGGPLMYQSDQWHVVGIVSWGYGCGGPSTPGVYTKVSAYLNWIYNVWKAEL
Test: Inhibitory effect on TMPRSS4 serine protease activity using peptide substrate
Assay type: biochemical
Settings: 10 uM compound; kallikrein peptide substrate 100 μM; DMSO negative control; read-out: Intracellular protease activity Inhibition % 10 uM

{"compound": "Cc1nc(NC(=O)c2cc(Cl)ccc2O)n[nH]1 [Example 75]", "inhibition at 10 µM": "51 to 100%"}
{"compound": "O=C(Nc1cc(C(F)(F)F)cc(C(F)(F)F)c1)c1cc(Br)ccc1O [Example 9]", "inhibition at 10 µM": "51 to 100%"}

Next item in the queue.
GET /value?item= COc1c(C(F)(F)F)cc(NC(=O)c2cc(Cl)ccc2O)cc1C(F)(F)F [Example 39] &field=inhibition at 10 µM returns 51 to 100%

====

Target: TMPRSS4 serine protease (Homo sapiens, UniProt Q9NRS4)
Construct: TMPRSS4 serine protease domain (205th Val˜437th Leu) was cloned in pET21b/NdeI-XhoI; inferred from pET21b XhoI cloning and Ni-NTA purification) (C); made in house; host or cells: E. coli BL21 (DE3)
Assay: Inhibitory effect on TMPRSS4 serine protease activity using peptide substrate
Type: biochemical
Settings: 10 uM compound; kallikrein peptide substrate 100 μM; DMSO negative control; read-out: Intracellular protease activity Inhibition % 10 uM
reported.endpoint: inhibition at 10 µM (%)
// return numeric value only (unit: %, not printed)

GET /value?item= O=C(Nc1nc(-c2cccnc2)cs1)c1cc(Cl)ccc1O &field=inhibition at 10 µM returns 30

GET /value?item= O=C(Nc1cc(C(F)(F)F)cc(C(F)(F)F)c1)c1ccccc1O &field=inhibition at 10 µM returns 0

GET /value?item= COc1ccc(O)c(C(=O)Nc2cc(C(F)(F)F)cc(C(F)(F)F)c2)c1 &field=inhibition at 10 µM returns 0

GET /value?item= O=C(Nc1cc(C(F)(F)F)cc(C(F)(F)F)c1)c1ccc(Cl)cc1O &field=inhibition at 10 µM returns 29

GET /value?item= O=C(Nc1cc(C(F)(F)F)cc(C(F)(F)F)c1)c1cc([N+](=O)[O-])ccc1O &field=inhibition at 10 µM returns 33

GET /value?item= Cc1ccc(O)c(C(=O)Nc2cc(C(F)(F)F)cc(C(F)(F)F)c2)c1 &field=inhibition at 10 µM returns 0

GET /value?item= N#Cc1ccc(NC(=O)c2cc(Cl)ccc2O)nc1 &field=inhibition at 10 µM returns 26

GET /value?item= O=C(Nc1cc(C(F)(F)F)cc(C(F)(F)F)c1)c1cnc2ccccc2c1O &field=inhibition at 10 µM returns 0

GET /value?item= Nc1ccc(O)c(C(=O)Nc2cc(C(F)(F)F)cc(C(F)(F)F)c2)c1 &field=inhibition at 10 µM returns 3

GET /value?item= Cc1nc(NC(=O)c2cc(Cl)ccc2O)sc1C &field=inhibition at 10 µM returns 16

GET /value?item= CC(=O)Oc1ccc(Cl)cc1C(=O)Nc1cc(C(F)(F)F)cc(C(F)(F)F)c1 &field=inhibition at 10 µM returns 0

GET /value?item= O=C(Nc1cc(C(F)(F)F)cc(C(F)(F)F)c1)c1cc(F)ccc1O &field=inhibition at 10 µM returns 0

GET /value?item= N#Cc1cccc(NC(=O)c2cc(Cl)ccc2O)c1 &field=inhibition at 10 µM returns 12

GET /value?item= O=C(Nc1cc(C(F)(F)F)cc(C(F)(F)F)c1)c1cc(Cl)cnc1O &field=inhibition at 10 µM returns 0

GET /value?item= O=C(NCc1cc(C(F)(F)F)cc(C(F)(F)F)c1)c1cc(Cl)ccc1O &field=inhibition at 10 µM returns 36

GET /value?item= NC(=O)c1ccc(O)c(C(=O)Nc2cc(C(F)(F)F)cc(C(F)(F)F)c2)c1 &field=inhibition at 10 µM returns 0

GET /value?item= N#Cc1ccc(O)c(C(=O)Nc2cc(C(F)(F)F)cc(C(F)(F)F)c2)c1 &field=inhibition at 10 µM returns 15

GET /value?item= CC(=O)Nc1ccc(O)c(C(=O)Nc2cc(C(F)(F)F)cc(C(F)(F)F)c2)c1 &field=inhibition at 10 µM returns 0

GET /value?item= O=C(NC1=NCCS1)c1cc(Cl)ccc1O &field=inhibition at 10 µM returns 17

GET /value?item= Cc1cc(Cl)cc(C(=O)Nc2cc(C(F)(F)F)cc(C(F)(F)F)c2)c1O &field=inhibition at 10 µM returns 33

GET /value?item= O=C(Nc1cc(C(F)(F)F)cc(C(F)(F)F)c1)c1ccc(C(F)(F)F)cc1O &field=inhibition at 10 µM returns 32
